Taken from the NIST ThermoML archive (doi:10.1021/je800101v).

- EXPERIMENTAL CONTEXT: 298.15 K, Ring tensiometer
Each entry below lists one item and its recorded surface tension liquid-gas value.
METRIC NAME: surface tension liquid-gas (mN/m)

> print(dat)
   smiles.text                 metric.name  number
1         OCCO  surface tension liquid-gas   47.79
2      CCCCCCO  surface tension liquid-gas   25.69
3       CCCCCO  surface tension liquid-gas   24.89
4     CCCCCCCO  surface tension liquid-gas   26.38
